# System: HeLa
# measurement_notes: Growth inhibition of non-estrogen-sensitive human HeLa cells after 72 hrs by MTT assay
# Type: functional
result_type: GI50 (µM)

Exam item: Please report the recorded GI50 for CCn1ccc2c3nc(-c4ccccc4)cc(Cn4ccnc4)c3ccc21 .
Marked response: 19.5

Exam item: Okay, and COc1ccc(-c2cc(Cn3ccnc3)c3ccc4[nH]ccc4c3n2)cc1 ?
Marked response: 67.9

[a] CCn1ccc2c3c(Cn4ccnc4)cc(-c4ccccc4)nc3ccc21
[b] CCn1ccc2c3c(Cn4cncn4)cc(-c4ccccc4)nc3ccc21
[c] COc1cccc(-c2cc(=O)c3ccc4[nH]ccc4c3[nH]2)c1
Exam item: List the 3 entries from lowest GI50 to highest GI50 value. Provide your answer as the labels ordered per the instruction.
Marked response: a, c, b
